Experiment: HILIC, Merck SeQuant ZIC-HILIC, 25 °C, 0.25 mL/min; A: water + 16 mM ammonium formate; B: acetonitrile + 0.1% formic acid, pH 3; gradient (min/%B) 0/97 2/97 10/70 15/10 17/10 18/97 25/97
Conditions: stereoisomer not certain
measured.attribute: LC retention time (min)

Below, 3 compounds whose answers are already recorded.
- compound: "O=C([O-])c1cc(=O)[nH]c(=O)[nH]1 [OROTATE]"
  observed.value: 10.9
- compound: "NC(CS)C(=O)NCC(=O)O (stereo not given)"
  observed.value: 16.3
- compound: "NC(Cc1c[nH]c2ccccc12)C(=O)O (stereo not given)"
  observed.value: 11.4

A. CC(CCC(=O)O)C1CCC2C3C(O)C(O)C4CC(O)CCC4(C)C3CCC12C (stereo not given)
B. NCCCC[C@H](N)C(=O)O
C. CC(=O)NC(CO)C(=O)O (stereo not given)
# rank_down: sort by LC retention time, max first Labels, requested order.
B, C, A

1. Cn1c(=O)c2c(ncn2C)n(C)c1=O
2. Cn1cnc2nc(N)[nH]c(=O)c21
Compare LC retention time: is it lower for 1 or for 2 ? Field: selected label. Fill in the label of the entry you choose.
1

1. Nc1ccc(C(=O)NCC(=O)O)cc1
2. CC(CCC(=O)O)C1CCC2C3C(O)CC4CC(O)CCC4(C)C3CCC12C (stereo not given) [CHENODEOXYCHOLATE]
Between the entries labelled 1 and 2 , which has a larger LC retention time value on record? Field: selected label. Fill in the label of the entry you choose.
1
